B1: CPEB3 Ribozyme (parent)
chain: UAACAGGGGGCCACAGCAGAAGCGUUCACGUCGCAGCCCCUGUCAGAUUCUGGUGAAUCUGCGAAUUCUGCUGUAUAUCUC

variants of: B1; assay: self-cleavage, relative activity (ratio to wild type); higher = more cleavage; in vitro, sequencing
Would you mind telling me the reported self-cleavage of each entry?
Answers are plain numbers.

{"variantCode": "U41A C79A", "self-cleavage": 0.32}
{"variantCode": "U43C C81A", "self-cleavage": 0.92}
{"variantCode": "G16C A21G", "self-cleavage": 0.32}

Lab note: each variant below needs its self-cleavage filled in.
1. A18U U66A
2. C39G A47G
3. G9C A64U

Result:
1: 0.29; 2: 0.13; 3: 0.23
